- testSystem: human STING (hSTING) (Homo sapiens, UniProt Q86WV6)
- Construct: host or cells: HEK-Blue ISG cells (HEK293-derived SEAP reporter line)
- Sequence (Q86WV6 whole entry H232R): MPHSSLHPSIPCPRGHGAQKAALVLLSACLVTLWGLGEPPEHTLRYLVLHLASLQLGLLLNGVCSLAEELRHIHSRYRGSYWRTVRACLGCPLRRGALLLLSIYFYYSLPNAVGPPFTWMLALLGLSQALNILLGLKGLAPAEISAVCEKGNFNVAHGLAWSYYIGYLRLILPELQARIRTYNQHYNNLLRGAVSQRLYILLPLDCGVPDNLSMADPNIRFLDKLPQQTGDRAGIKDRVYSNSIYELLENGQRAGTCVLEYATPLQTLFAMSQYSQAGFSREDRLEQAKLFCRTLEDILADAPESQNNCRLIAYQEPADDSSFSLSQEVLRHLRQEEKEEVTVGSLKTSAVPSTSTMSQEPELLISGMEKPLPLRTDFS
- measurementProtocol: Inhibition test of intracellular human STING (hSTING) pathway using SEAP reporter cells (HEK-Blue ISG), stimulation with Compound 3
- Assay type: cell-based
- Design: scale not given here
- measurementConditions: Compound 3 10 nM stimulation, 21 hours
measuredMetric: hSTING inhibitory activity

INSERT INTO assay_data (compound, testsystem, measuredmetric, result) VALUES
  ('Brc1ccc2[nH]cc(Nc3nc4cc(Oc5ccccc5)ccc4[nH]3)c2n1', 'human STING (hSTING) (Homo sapiens, UniProt Q86WV6)', 'hSTING inhibitory activity', '* *'),
  ('CN(C)n1c(Nc2c[nH]c3ccc(Cl)cc23)nc2cc(Cl)ccc21', 'human STING (hSTING) (Homo sapiens, UniProt Q86WV6)', 'hSTING inhibitory activity', '* * *'),
  ('C=Cc1ccc2[nH]cc(Nc3nc4cc(Oc5ccccc5)ccc4[nH]3)c2n1', 'human STING (hSTING) (Homo sapiens, UniProt Q86WV6)', 'hSTING inhibitory activity', '* * *'),
  ('Cn1c(Nc2c[nH]c3ccc(Cl)nc23)nc2cc(F)c(Oc3ccccc3)cc21', 'human STING (hSTING) (Homo sapiens, UniProt Q86WV6)', 'hSTING inhibitory activity', '* *'),
  ('Fc1cccc2[nH]c(Nc3c[nH]c4ccc(Br)cc34)nc12', 'human STING (hSTING) (Homo sapiens, UniProt Q86WV6)', 'hSTING inhibitory activity', '* *'),
  ('CNn1c(Nc2c[nH]c3ccc(F)c(F)c23)nc2cc(C(F)(F)F)cc(F)c21', 'human STING (hSTING) (Homo sapiens, UniProt Q86WV6)', 'hSTING inhibitory activity', '* * *'),
  ('Clc1ccc2[nH]cc(Nc3nc4cc(C5CC5)ccc4[nH]3)c2n1', 'human STING (hSTING) (Homo sapiens, UniProt Q86WV6)', 'hSTING inhibitory activity', '* *'),
  ('Cn1c(Nc2c[nH]c3ncc(Cl)cc23)nc2cc(C(F)(F)F)ccc21', 'human STING (hSTING) (Homo sapiens, UniProt Q86WV6)', 'hSTING inhibitory activity', '* *');

Query: Recall and state the measured hSTING inhibitory activity for FC(F)(F)c1ccc2c(c1)nc(Nc1c[nH]c3ccc(Cl)cc13)n2C1CC1 .
Response: * * *

Query: Input Clc1ccc2[nH]cc(Nc3nc4cc(-c5cccc(CN6CCOCC6)c5)ccc4[nH]3)c2n1 , output reported hSTING inhibitory activity.
Response: * *

* * *

- testSystem: UniProt:Q86WV6
- measurementProtocol: Inhibition test of intracellular human STING (hSTING) pathway using SEAP reporter cells (HEK-Blue ISG), stimulation with Compound 3
- measurementConditions: Compound 3 10 nM stimulation, 21 hours, read-out: hSTING inhibitory activity
- Procedure: Inhibition test of intracellular human STING (hSTING) pathway using reporter cells Since STING activates the transcription factor IRF3 upon ligand stimulation, the activity of STING can be evaluated by a reporter assay using a secretory alkaline phosphatase (SEAP reporter) integrated downstream of an IRF-inducible promoter. That is, the hSTING inhibitory activity of the test compound was evaluated using HEK-Blue™MISG cells (manufactured by Invivogen, #hkb-isg-1) incorporating a SEAP reporter. […]
measuredMetric: IC50

# count of solved cases: 3
INSERT INTO assay_data (smilesrecord, result) VALUES
  ('COc1ccc2c(c1)nc(Nc1c[nH]c3ccc(Cl)nc13)n2C', '1 to 10 µM'),
  ('COCCOc1cc2nc(Nc3c[nH]c4ccc(Cl)nc34)[nH]c2cc1OCCOC', '≥ 10 µM'),
  ('Brc1cc2c(Nc3nc4cc(Oc5ccccc5)ccc4[nH]3)c[nH]c2cn1', '1 to 10 µM');

Query: Fill in reported IC50 for this entry: c1ccc(Oc2ccc3[nH]c(Nc4c[nH]c5c(-c6cccnc6)ccnc45)nc3c2)cc1
Response: 1 to 10 µM

Query: State its IC50 for this compound: Cc1cnc2[nH]cc(Nc3nc4cc(Oc5ccccc5)ccc4[nH]3)c2c1
Response: ≥ 10 µM

Query: Annotate the compound CCc1ccc2[nH]cc(Nc3nc4cc(C(F)(F)F)ccc4n3C)c2n1 with its measured IC50.
Response: ≥ 10 µM

Query: Assign IC50 to the following record: COCCn1c(Nc2c[nH]c3ccc(Cl)nc23)nc2ccc(C(F)(F)F)cc21
Response: ≥ 10 µM

Query: Assign IC50 to the following record: COCCn1c(Nc2c[nH]c3ccc(Cl)nc23)nc2ccc(-c3ccccc3)cc21
Response: ≥ 10 µM

* * *

- testSystem: human STING (hSTING) (Homo sapiens, UniProt Q86WV6)
- Construct: host or cells: HEK-Blue ISG cells (HEK293-derived SEAP reporter line)
- measurementProtocol: Inhibition test of intracellular human STING (hSTING) pathway using SEAP reporter cells (HEK-Blue ISG), stimulation with Compound 3
- Assay type: cell-based
- Set-up: scale not given here
- measurementConditions: Compound 3 10 nM stimulation, 21 hours
measuredMetric: hSTING inhibitory activity

INSERT INTO results (smilesrecord, testsystem, result) VALUES
  ('Fc1cc2nc(Nc3c[nH]c4ccc(Cl)nc34)[nH]c2cc1F', 'human STING (hSTING) (Homo sapiens, UniProt Q86WV6)', '* *'),
  ('CNn1c(Nc2c[nH]c3ccc(Cl)cc23)nc2cc(C(F)(F)F)cc(F)c21', 'human STING (hSTING) (Homo sapiens, UniProt Q86WV6)', '* * *'),
  ('CC(C)n1c(Nc2c[nH]c3ccc(Cl)nc23)nc2ccc(Oc3ccccc3)cc21', 'human STING (hSTING) (Homo sapiens, UniProt Q86WV6)', '* * *'),
  ('Cn1c(Nc2c[nH]c3ccc(Br)nc23)nc2cc(C(F)(F)F)ccc21', 'human STING (hSTING) (Homo sapiens, UniProt Q86WV6)', '* * *');

* * *

- testSystem: human STING (hSTING) (Homo sapiens)
- Construct: host or cells: HEK-Blue ISG cells (HEK293-derived SEAP reporter line)
- measurementProtocol: Inhibition test of intracellular human STING (hSTING) pathway using SEAP reporter cells (HEK-Blue ISG), stimulation with Compound 3
- Assay type: cell-based
- Parameters: scale not given here
- measurementConditions: Compound 3 10 nM stimulation, 21 hours
measuredMetric: hSTING inhibitory activity

INSERT INTO assay_data (smilesrecord, result) VALUES
  ('Cn1c(Nc2c[nH]c3ccc(Cl)cc23)nc2cc(C(F)(F)F)c(F)c(F)c21', '* * *'),
  ('CC(C)n1c(Nc2c[nH]c3ccc(Cl)nc23)nc2cc(Oc3ccccc3)ccc21', '* * *'),
  ('FC(F)(F)c1ccc2[nH]c(Nc3c[nH]c4ccc(Cl)cc34)nc2c1', '* *'),
  ('CC(C)n1c(Nc2c[nH]c3ccc(Cl)cc23)nc2cc(C(F)(F)F)cc(F)c21', '* * *'),
  ('CN(C)n1c(Nc2c[nH]c3ccc(Cl)cc23)nc2cc(C(F)(F)F)cc(F)c21', '* * *');

Query: Please give the documented hSTING inhibitory activity of Cn1c(Nc2c[nH]c3ccc(Cl)nc23)nc2cc(OC(F)(F)F)ccc21
Response: * *

* * *

- testSystem: human STING (hSTING) (Homo sapiens)
- Construct: host or cells: HEK-Blue ISG cells (HEK293-derived SEAP reporter line)
- measurementProtocol: Inhibition test of intracellular human STING (hSTING) pathway using SEAP reporter cells (HEK-Blue ISG), stimulation with Compound 3
- Assay type: cell-based
- Parameters: scale not given here
- measurementConditions: Compound 3 10 nM stimulation, 21 hours
Counter-ions that a name gives are not always drawn.
measuredMetric: hSTING inhibitory activity

INSERT INTO measurements (compound, result) VALUES
  ('C#Cc1ccc2[nH]cc(Nc3nc4cc(Oc5ccccc5)ccc4[nH]3)c2n1 [Embodiment 111, formate]', '* * *'),
  ('Fc1cc2[nH]c(Nc3c[nH]c4ccc(Cl)nc34)nc2cc1Oc1ccccc1', '* *'),
  ('Brc1ccc2[nH]cc(Nc3nc4ccccc4[nH]3)c2c1', '* *'),
  ('C[C@H](O)Cn1c(Nc2c[nH]c3ccc(Cl)cc23)nc2cc(C(F)(F)F)ccc21', '* *');

* * *

- testSystem: human STING (hSTING) (Homo sapiens, UniProt Q86WV6)
- Construct: host or cells: HEK-Blue ISG cells (HEK293-derived SEAP reporter line)
- measurementProtocol: Inhibition test of intracellular human STING (hSTING) pathway using SEAP reporter cells (HEK-Blue ISG), stimulation with Compound 3
- Type: cell-based
- Parameters: scale not given here
- measurementConditions: Compound 3 10 nM stimulation, 21 hours
Structures can show the parent of a compound that is named as a salt.
measuredMetric: hSTING inhibitory activity

Check out these entries, answers already filled in.
INSERT INTO measurements (compound, measuredmetric, result) VALUES
  ('CN(C)n1c(Nc2c[nH]c3ccc(F)c(F)c23)nc2cc(C(F)(F)F)cc(F)c21', 'hSTING inhibitory activity', '* *'),
  ('Fc1cc(C(F)(F)F)cc2nc(Nc3c[nH]c4ccc(Cl)cc34)[nH]c12', 'hSTING inhibitory activity', '* *'),
  ('Cn1c(Nc2c[nH]c3ccc(Cl)cc23)nc2cc(C3CCOCC3)ccc21 [Embodiment 197, formate]', 'hSTING inhibitory activity', '* *'),
  ('Cc1c(C(F)(F)F)ccc2c1nc(Nc1c[nH]c3ccc(Cl)cc13)n2C', 'hSTING inhibitory activity', '* * *'),
  ('Cn1c(Nc2c[nH]c3ccc(Cl)cc23)nc2ccc(Oc3ccc(F)cc3)cc21', 'hSTING inhibitory activity', '* * *'),
  ('Cn1c(Nc2c[nH]c3ccc(Cl)nc23)nc2ccc(Oc3ccccc3)cc21', 'hSTING inhibitory activity', '* *'),
  ('CC(C)=Cc1ccc2[nH]c(Nc3c[nH]c4ccc(Cl)nc34)nc2c1', 'hSTING inhibitory activity', '* *'),
  ('FC(F)(F)c1ccc2c(c1)nc(Nc1c[nH]c3ccc(Cl)cc13)n2CC1CC1', 'hSTING inhibitory activity', '* * *');

Query: Kindly indicate its recorded hSTING inhibitory activity. Item: ClC(=CC1CC1)c1ccc2[nH]c(Nc3c[nH]c4ccc(Cl)nc34)nc2c1
Response: * *

Query: Find the measured hSTING inhibitory activity of Cn1c(Nc2c[nH]c3ccc(Cl)cc23)nc2cc(C(F)(F)F)c(F)cc21 and report it.
Response: * * *

Query: Answer with the recorded hSTING inhibitory activity for the compound listed here: Cn1c(Nc2c[nH]c3ccc(Cl)cc23)nc2cc(C(F)(F)F)cc(C#N)c21
Response: * * *
